Measurement Target: T1, monkey GPC3-His protein (monkey)
T1 construct: Bought recombinant protein; also called monkey GPC3 protein
Experimental Protocol: ELISA, monkey GPC3-His coated;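 further: Plate-coated antigen at 1 µg/mL, antibody binding 2 h at 37 °C, detected with HRP-labeled secondary antibody and TMB, absorbance at 450 nm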
With a cut-off of 2 OD450, any OD450 at 10 nM strictly below it is called Yes; any OD450 at 10 nM meeting it or above is called No.

INPUT: hey, is OD450 at 10 nM for F1.111.11 (antibody, human IgG1, kappa, V domains shown, Human-murine chimeric antibody) VH: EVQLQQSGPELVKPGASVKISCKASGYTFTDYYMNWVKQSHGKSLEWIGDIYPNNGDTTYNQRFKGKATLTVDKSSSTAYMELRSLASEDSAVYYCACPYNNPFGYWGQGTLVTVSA VL: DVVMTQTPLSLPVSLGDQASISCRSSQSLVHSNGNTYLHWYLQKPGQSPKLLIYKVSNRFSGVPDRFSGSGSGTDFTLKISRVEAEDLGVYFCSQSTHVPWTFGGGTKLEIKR lower than 2 OD450 or not?
OUTPUT: No

INPUT: # iterate: F1.62.9 (antibody, human IgG1, kappa, V domains shown, Human-murine chimeric antibody) VH: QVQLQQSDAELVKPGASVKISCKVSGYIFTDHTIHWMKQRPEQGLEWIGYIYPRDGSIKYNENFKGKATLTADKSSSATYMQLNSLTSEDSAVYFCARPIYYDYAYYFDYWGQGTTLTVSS VL: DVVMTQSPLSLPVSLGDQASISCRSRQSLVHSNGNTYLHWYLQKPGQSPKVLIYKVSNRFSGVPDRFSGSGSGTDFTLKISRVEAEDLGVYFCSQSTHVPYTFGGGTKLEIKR
OUTPUT: Yes

INPUT: # iterate: F3.54.12 (antibody, human IgG1, kappa, V domains shown, Human-murine chimeric antibody) VH: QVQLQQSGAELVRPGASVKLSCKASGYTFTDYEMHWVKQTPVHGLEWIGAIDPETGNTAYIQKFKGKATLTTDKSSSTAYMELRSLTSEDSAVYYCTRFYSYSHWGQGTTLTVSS VL: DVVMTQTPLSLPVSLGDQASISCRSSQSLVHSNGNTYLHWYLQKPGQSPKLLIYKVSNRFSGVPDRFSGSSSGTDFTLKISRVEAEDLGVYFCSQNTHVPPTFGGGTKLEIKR
OUTPUT: No

INPUT: # iterate: F1.2.14 (antibody, human IgG1, kappa, V domains shown, Human-murine chimeric antibody) VH: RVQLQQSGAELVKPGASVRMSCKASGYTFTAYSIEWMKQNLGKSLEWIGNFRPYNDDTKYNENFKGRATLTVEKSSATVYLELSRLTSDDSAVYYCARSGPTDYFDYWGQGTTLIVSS VL: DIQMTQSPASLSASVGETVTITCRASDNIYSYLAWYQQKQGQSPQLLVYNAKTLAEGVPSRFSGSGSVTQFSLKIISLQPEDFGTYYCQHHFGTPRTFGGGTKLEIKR
OUTPUT: Yes

INPUT: # iterate: F2.39.2 (antibody, human IgG1, kappa, V domains shown, Human-murine chimeric antibody) VH: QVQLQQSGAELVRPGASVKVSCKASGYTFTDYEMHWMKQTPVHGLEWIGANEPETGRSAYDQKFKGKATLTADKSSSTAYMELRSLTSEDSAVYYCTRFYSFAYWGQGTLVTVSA VL: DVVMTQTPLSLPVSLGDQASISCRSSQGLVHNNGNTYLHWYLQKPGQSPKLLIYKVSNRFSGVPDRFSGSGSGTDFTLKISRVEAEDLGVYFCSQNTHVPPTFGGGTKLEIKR
OUTPUT: No

INPUT: # iterate: F1.110.24 (antibody, human IgG1, kappa, V domains shown, Human-murine chimeric antibody) VH: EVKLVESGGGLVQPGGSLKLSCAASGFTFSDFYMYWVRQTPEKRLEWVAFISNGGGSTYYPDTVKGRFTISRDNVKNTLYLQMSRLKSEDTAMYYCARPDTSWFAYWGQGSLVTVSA VL: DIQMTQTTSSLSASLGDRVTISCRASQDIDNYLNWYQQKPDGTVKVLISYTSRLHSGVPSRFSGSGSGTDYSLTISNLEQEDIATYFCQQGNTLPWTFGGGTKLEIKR
OUTPUT: Yes

INPUT: # iterate: F1.57.21 (antibody, human IgG1, kappa, V domains shown, Human-murine chimeric antibody) VH: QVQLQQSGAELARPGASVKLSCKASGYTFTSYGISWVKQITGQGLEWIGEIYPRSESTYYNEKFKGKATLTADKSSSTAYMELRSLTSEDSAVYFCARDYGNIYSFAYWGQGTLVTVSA VL: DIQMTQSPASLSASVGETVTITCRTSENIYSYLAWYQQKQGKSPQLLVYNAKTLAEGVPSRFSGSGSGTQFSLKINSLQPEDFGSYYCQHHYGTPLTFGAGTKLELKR
OUTPUT: No

INPUT: # iterate: F4.21.16 (antibody, human IgG1, kappa, V domains shown, Human-murine chimeric antibody) VH: DVQLQESGPGLVKPSQSLSLTCSVTGYSITSGYYWNWIRQFPGNKLEWMGYISYDVTVNYNPSLKNRISITRDTSKNQFFLKLNSVTTEDTATYYCATITSVASMDHWGQGTSVTVSS VL: DILMTQTPLSLPVSLGDQASISCRSSQNIVHRNGNTYLEWYLQKPGQSPKLLLYKVSNRFSGVPDRFSGSGSGTDFTLKISRVEAEDLGIYYCFQGSHFPFTFGSGTKLEIKR
OUTPUT: Yes

INPUT: # iterate: F2.154.1 (antibody, human IgG1, kappa, V domains shown, Human-murine chimeric antibody) VH: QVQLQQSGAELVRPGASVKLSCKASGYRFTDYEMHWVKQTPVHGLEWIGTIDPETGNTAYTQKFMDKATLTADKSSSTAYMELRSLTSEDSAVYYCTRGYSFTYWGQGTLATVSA VL: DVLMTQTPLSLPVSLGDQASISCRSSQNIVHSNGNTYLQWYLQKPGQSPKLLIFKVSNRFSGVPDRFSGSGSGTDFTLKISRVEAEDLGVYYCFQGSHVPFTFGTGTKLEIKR
OUTPUT: No
